Measured values drawn from ChEMBL document CHEMBL1201862 for this set.

Tested on: RPMI-8226
Test: NCI tumour cell line growth inhibition, 48 h
Calls of active or inactive are those of the source. No stated cut-off is given here; in the data, active = GI50 up to about 1.1 µM and inactive = higher.
Write down one outcome, taken from yes (1) for active, no (0) for inactive

Incoming: Identify the outcome logged in this assay for the compound shown: O=C1NC(Cc2c[nH]c3ccccc23)C(=O)N2C(c3ccccc3)c3[nH]c4ccccc4c3C[C@@H]12 (stereo not given in full)
Outgoing: no (0)

Incoming: Identify the outcome logged in this assay for the compound shown: C=C1C=CC2(Br)OC3CC(C)(Cl)C(Br)CC13C2(C)C (stereo not given)
Outgoing: no (0)

Incoming: Identify the outcome logged in this assay for the compound shown: COc1cc(C2c3cc4c(cc3OC(N3CCCC3)C2C)OCO4)cc(OC)c1O (stereo not given)
Outgoing: no (0)

Incoming: Identify the outcome logged in this assay for the compound shown: CC1OC(OC2C[C@](O)(C(=O)CF)Cc3c(O)c4c(c(O)c32)C(=O)c2ccccc2C4=O)CC(N)C1O (stereo not given in full)
Outgoing: yes (1)

Incoming: Identify the outcome logged in this assay for the compound shown: "C[C@@H](NC(=O)[C@@H]1C[C@]1(C)CO)c1cccc2ccccc12"
Outgoing: no (0)
